Where do these numbers come from? They come from patent US8134015B2.

Target: UniProt Q9JJ09
Sequence (Q9JJ09 1-695): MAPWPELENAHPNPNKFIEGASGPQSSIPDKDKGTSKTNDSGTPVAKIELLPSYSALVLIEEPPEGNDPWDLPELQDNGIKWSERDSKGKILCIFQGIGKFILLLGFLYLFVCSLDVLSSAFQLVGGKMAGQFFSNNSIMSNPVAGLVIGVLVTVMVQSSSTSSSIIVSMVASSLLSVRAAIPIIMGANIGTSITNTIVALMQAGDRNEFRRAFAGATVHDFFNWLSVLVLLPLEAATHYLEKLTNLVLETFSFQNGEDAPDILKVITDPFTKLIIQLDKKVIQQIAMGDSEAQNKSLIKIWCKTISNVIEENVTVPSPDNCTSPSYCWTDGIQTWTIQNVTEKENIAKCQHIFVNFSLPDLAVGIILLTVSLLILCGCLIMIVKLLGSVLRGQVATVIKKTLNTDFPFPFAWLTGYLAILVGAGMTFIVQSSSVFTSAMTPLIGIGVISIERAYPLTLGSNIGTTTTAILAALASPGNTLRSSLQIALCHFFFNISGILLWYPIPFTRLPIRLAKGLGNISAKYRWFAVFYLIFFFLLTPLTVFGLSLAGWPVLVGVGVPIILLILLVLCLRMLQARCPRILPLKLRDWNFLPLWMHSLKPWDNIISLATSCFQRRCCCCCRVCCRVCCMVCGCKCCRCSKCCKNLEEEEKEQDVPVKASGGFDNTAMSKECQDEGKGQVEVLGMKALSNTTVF
Experiment: Sodium-dependent phosphate uptake of Xenopus oocytes which expressed NaPi-2b (32P)
Settings: Xenopus oocytes expressing rat NaPi-2b, 32P radioactive phosphorus; read-out: IC50 (phosphate uptake inhibitory activity)
Experimental: Pharmacological Test Example 1 Experiment of Sodium-Dependent Phosphate Uptake of Xenopus oocytes which Expressed NaPi-2b Degenerate primers were prepared from sequences of mouse NaPi-2b disclosed in Hilfiker H. et al., Pro Natl Acad Sci USA, 95 (24): 14564-14569, […] and sequences of human and rat NaPi-2a disclosed in Magagnin S. et al., Proc Natl Aca Sci USA, 90 (13): 5979-5983, 1993. RNA was extracted from the rat small intestine using ISOGEN; manufactured by NIPPON GENE CO., LTD (Japan). […]
pIC50: −log10 of the molar value.
Outcome Measure: pIC50

Some compounds with recorded pIC50:
In [3]: df
Out[3]:
                                   compound  result
0  COc1ccc(/C=N/NC(=O)c2c(C)csc2NC(=O)c2cccc(CSc3nc[nH]n3)c2)cc1  > 5.52
1  O=C(Nc1sccc1C(=O)N/N=C/c1cccc(F)c1)c1cccc(CSCCCO)c1  > 5.00
2  CCN(CC)CCN(CCN(CC)CC)Cc1cccc(C(=O)Nc2scc(C)c2C(=O)N/N=C/c2ccc(C)c(C)c2)c1  > 5.52
3  CCN(CC)CCN(C)Cc1cccc(C(=O)Nc2ccc(N3CCSCC3)cc2C(=O)N/N=C/c2ccc(Cl)c(C(F)(F)F)c2)c1  > 6.00
4  CCN(CC)CCN(C)Cc1cccc(C(=O)Nc2ccc(OCC3CCCCC3)cc2C(=O)N/N=C/c2ccc(C)c(C)c2)c1  > 6.00

Now consider a different compound.
Given O=C(Nc1ccc(Br)cc1C(=O)N/N=C/c1ccc(Cl)c(C(F)(F)F)c1)c1cccc(C[S+]([O-])CCO)c1 (stereo not drawn) , respond with its pIC50.
> 5.52
